Data credit: paper PMC7954794

Test system: 575 putative partners (preys) of 22 WT SH3-containing proteins
Experiment: DHFR-PCA on solid medium, WT and SH3-deleted baits (Fig. 1B)
Assay type: cell-based, Saccharomyces cerevisiae
Parameters: key: 0: SH3-independent; 1: SH3-dependent PPIs; 2: SH3-inhibited PPIs
Run Conditions: bait SLA1-3, label = prey
Measured Property: Score

>>> value_measured("YGR037C (protein, UniProt P31787 1-87, looked up) Acyl-CoA-binding protein: MVSQLFEEKAKAVNELPTKPSTDELLELYALYKQATVGDNDKEKPGIFNMKDRYKWEAWENLKGKSQEDAEKEYIALVDQLIAKYSS")
1
